Receptor-type tyrosine-protein kinase FLT3 (Homo sapiens): reported IC50 for various compounds.

- COMPOUND STRUCTURE: "Cc1cc(Nc2cc3c(cn2)ncc(=O)n3-c2ccc(N)cc2)ncc1N1CCNCC1"
  IC50: "102 nM"
- COMPOUND STRUCTURE: "CCN1CCN(c2cnc(Nc3cc4c(cn3)ncc(=O)n4-c3ccc(N)cc3)cc2C)CC1"
  IC50: "102 nM"
- COMPOUND STRUCTURE: "CC(=O)Nc1ccc(-n2c(=O)cnc3cnc(Nc4ccc(N5CCN(C)CC5)cn4)cc32)cc1"
  IC50: "939 nM"
- COMPOUND STRUCTURE: "CN1CCN(c2ccc(Nc3ccc4ncc(=O)n(-c5ccc(N)cc5)c4n3)nc2)CC1"
  IC50: "2540 nM"
- COMPOUND STRUCTURE: "CN1CCN(c2ccc(Nc3cc4c(cn3)ncc(=O)n4-c3ccc(N)cc3)nc2)CC1"
  IC50: "599 nM"

###

Catalogue of compounds with associated IC50
Target: UniProt:P36888
Sequence (P36888 whole entry): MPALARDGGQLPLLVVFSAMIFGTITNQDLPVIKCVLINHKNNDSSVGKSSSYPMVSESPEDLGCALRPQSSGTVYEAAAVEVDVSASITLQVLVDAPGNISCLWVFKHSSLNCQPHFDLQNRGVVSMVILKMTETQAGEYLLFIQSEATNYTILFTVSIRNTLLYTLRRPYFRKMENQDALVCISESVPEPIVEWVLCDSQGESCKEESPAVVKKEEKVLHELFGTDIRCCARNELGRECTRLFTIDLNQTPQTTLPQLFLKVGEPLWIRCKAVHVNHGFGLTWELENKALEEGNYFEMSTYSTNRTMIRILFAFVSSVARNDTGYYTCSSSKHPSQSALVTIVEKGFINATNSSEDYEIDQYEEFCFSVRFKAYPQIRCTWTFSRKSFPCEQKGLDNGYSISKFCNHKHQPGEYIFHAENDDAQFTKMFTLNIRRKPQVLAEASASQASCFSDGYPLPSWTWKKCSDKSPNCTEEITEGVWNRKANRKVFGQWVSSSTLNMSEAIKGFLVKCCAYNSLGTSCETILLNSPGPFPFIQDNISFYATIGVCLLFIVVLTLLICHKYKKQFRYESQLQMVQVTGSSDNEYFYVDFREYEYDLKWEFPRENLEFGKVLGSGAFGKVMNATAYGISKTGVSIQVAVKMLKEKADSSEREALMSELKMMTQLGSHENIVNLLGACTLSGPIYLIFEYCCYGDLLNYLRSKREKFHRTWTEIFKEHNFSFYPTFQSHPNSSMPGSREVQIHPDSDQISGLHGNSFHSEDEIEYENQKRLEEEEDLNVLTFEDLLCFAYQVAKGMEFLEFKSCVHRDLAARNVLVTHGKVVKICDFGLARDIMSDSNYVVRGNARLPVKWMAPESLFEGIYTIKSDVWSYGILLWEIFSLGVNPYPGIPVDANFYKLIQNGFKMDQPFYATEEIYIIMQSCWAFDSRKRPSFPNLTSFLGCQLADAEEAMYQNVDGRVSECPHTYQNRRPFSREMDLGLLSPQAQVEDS

- COMPOUND STRUCTURE: "CN1CCN(c2ccc(Nc3cc4c(cn3)ncc(=O)n4-c3ccc(N)cc3)cc2)CC1"
  IC50 (nM): 2170
- COMPOUND STRUCTURE: "Cc1cc(Nc2cc3c(cn2)ncc(=O)n3-c2ccc(N)cc2)ncc1N1CCN(C)CC1"
  IC50 (nM): 50
- COMPOUND STRUCTURE: "Cc1cc(Nc2cc3c(cn2)ncc(=O)n3-c2ccc(N)cc2)ncc1N1CCSCC1"
  IC50 (nM): 185
